# Test system: K562
# Assay Explanation: Growth inhibition of human K562 cells assessed as cell growth at 10 uM after 48 hrs by sulforhodamine B assay
# Assay type: functional
# Measurement Conditions: K562, 48 h, read-out: Activity
Record form. Attribute: growth at 10 µM. Fill in for each entry.
Give just the numeric value; % need not be written.

Exercise: Which growth at 10 µM value is on record for Cc1ccc(C2=NN(c3ccc(S(C)(=O)=O)cc3)C(=O)CC2)cc1 ?
Solution: 11.7

Exercise: Dear colleague, I am looking for the recorded growth at 10 µM of the following molecule: CS(=O)(=O)c1ccc(N2N=C(c3ccc(Oc4ccccc4)cc3)CCC2=O)cc1
Solution: 39.7

Exercise: For the molecule CS(=O)(=O)c1ccc(N2N=C(c3ccc(F)cc3)CCC2=O)cc1 , what growth at 10 µM is on record?
Solution: 41.8

Exercise: # get_value(readout='growth at 10 µM', item= Cc1cc(O)ccc1C1=NN(c2ccc(S(C)(=O)=O)cc2)C(=O)CC1 )
Solution: 20.6

Exercise: Look up growth at 10 µM: CCc1ccc(C2=NN(c3ccc(S(C)(=O)=O)cc3)C(=O)CC2)cc1
Solution: 10.4

* * *

Record form. Attribute: GI50. Fill in for each entry.
# Test system: OVCAR-5
# Assay Explanation: Growth inhibition of human OVCAR5 cells after 48 hrs by sulforhodamine B assay
# Assay type: functional
# Measurement Conditions: OVCAR-5, 48 h
Write it as a number; the unit µM goes unstated.

Exercise: Need GI50, item O=c1[nH]cc(F)c(=O)[nH]1
Solution: 10.9

Exercise: # input compound: CCc1ccc(C2=NN(c3ccc(S(C)(=O)=O)cc3)C(=O)CC2)cc1 ; wanted: its GI50
Solution: 8.51

Exercise: Could you tell me which GI50 is on file for Cc1cc(O)ccc1C1=NN(c2ccc(S(C)(=O)=O)cc2)C(=O)CC1 ?
Solution: 53.8

Exercise: Fill in: GI50 of Cc1ccc(C2=NN(c3ccc(S(C)(=O)=O)cc3)C(=O)CC2)cc1 is ___
Solution: 3.69

* * *

# Tested on: CCRF-CEM
# Assay Explanation: Growth inhibition of human CCRF-CEM cells after 48 hrs by sulforhodamine B assay
# Format: functional, cell-based
Measured Quantity: GI50 (µM)
Give just the number in µM; leave the unit off.

Exercise: What does the record list as GI50 for Cc1cc(O)ccc1C1=NN(c2ccc(S(C)(=O)=O)cc2)C(=O)CC1 ?
Solution: 9.09

Exercise: Value lookup for GI50; key = CCc1ccc(C2=NN(c3ccc(S(C)(=O)=O)cc3)C(=O)CC2)cc1
Solution: 2.31

Exercise: Tell me the measured GI50 of Cc1ccc(C2=NN(c3ccc(S(C)(=O)=O)cc3)C(=O)CC2)cc1 , please.
Solution: 1.16

Exercise: For the compound O=c1[nH]cc(F)c(=O)[nH]1 , what GI50 is on record?
Solution: 9.79

* * *

# Tested on: Rattus norvegicus
# Assay Explanation: Antiinflammatory activity in Wistar rat assessed as inhibition of carrageenan-induced paw edema at 0.05 mmol/kg, po administered 30 mins prior challenge measured after 5 hrs
# Type: functional
Decide using inhibition in vivo at 50 µmol/kg: a value greater than or equal to 70% is Satisfied, a smaller one is Not satisfied.

Exercise: Is inhibition in vivo at 50 µmol/kg for Cc1ccc(C2=NN(c3ccc(S(C)(=O)=O)cc3)C(=O)CC2)cc1 at or above 70%?
Solution: Not satisfied

Exercise: Does the reported inhibition in vivo at 50 µmol/kg for CS(=O)(=O)c1ccc(N2N=C(c3ccc(Oc4ccccc4)cc3)CCC2=O)cc1 fall at or above the 70% mark?
Solution: Not satisfied

Exercise: # bool: inhibition in vivo at 50 µmol/kg of CS(=O)(=O)c1ccc(N2N=C(c3ccccc3)CCC2=O)cc1 >= 70%
Solution: Not satisfied

Exercise: Could you please find out whether CS(=O)(=O)c1ccc(N2N=C(c3ccc(F)cc3)CCC2=O)cc1 has inhibition in vivo at 50 µmol/kg that meets 70% or exceeds it?
Solution: Satisfied

Exercise: Test whether the molecule CS(=O)(=O)c1ccc(N2N=C(c3ccc(Cl)c(Cl)c3)CCC2=O)cc1 records inhibition in vivo at 50 µmol/kg of 70% or higher.
Solution: Not satisfied

Source listed as ChEMBL document CHEMBL2417474.
